- Tested on: SK-MEL-2 melanoma
- ASSAY INFO: NCI tumour cell line growth inhibition, 48 h
QUANTITY KIND: TGI

>>> test_value("COc1cc2c(cc1OC)C(C)N(C)c1c-2c(OC(C)=O)cc2cc(OC)c(OC)cc12 (stereo unspecified)")
"30.2 µM"
>>> test_value("CCOP(=O)(OCC)C1=C(c2ccccc2)OC(N)=C(C#N)C1c1ccc(Cl)cc1 (stereo unspecified)")
"> 100 µM"
>>> test_value("O=C1Nc2ccccc2/C1=C/c1c(Cl)[nH]c2ccc(O)cc12")
"12.7 µM"
>>> test_value("C[C@]12CCc3sc(Nc4ccc(O)cc4)nc3C1=CC[C@@H]1[C@@H]2CC[C@]2(C)C(=O)CC[C@@H]12")
"> 100 µM"
>>> test_value("COC(=O)[C@@]12C(=O)C(C)C(=O)[C@]1(C)C(C)=C[C@H]1[C@]3(C=O)CC[C@H](OC(C)=O)C(C)(C)[C@H]3CC[C@@]12C (stereo partly specified)")
"> 100 µM"
>>> test_value("C=CCC(OCCOCC)c1cc(OCCOCC)ccc1OC (stereo unspecified)")
"> 100 µM"
>>> test_value("CC(C)(C)[Si](C)(C)OCCOCn1cc(F)c(=O)[nH]c1=O")
"> 100 µM"
>>> test_value("O=C(/C=C/c1ccccc1)CSc1nc2ccc(I)cc2c(=O)n1Cc1ccccc1")
"99 µM"
>>> test_value("N=C(N)c1ccc(COc2ccccc2OCc2ccc(C(=N)N)cc2)cc1")
"> 100 µM"
>>> test_value("O=C1[C@@H]2C[C@@H](O)CN2C(=O)c2ccccc2N1CCCO")
"> 100 µM"
>>> test_value("Cc1ccc(-c2c(C#N)c(N)nc3c2CCS(=O)(=O)c2ccccc2-3)cc1")
"> 100 µM"
>>> test_value("C=C1C(=O)O[C@H]2[C@H]3O[C@@H](C[C@@H]12)[C@@]1(C)CC[C@H](O1)C(C)=CCC[C@H]3C")
"4.11 µM"
>>> test_value("NC(=O)NC(=O)c1cccc(NC(=O)CF)c1")
"> 100 µM"
>>> test_value("O=C(O)CC1OCC=C2CN3CCC45C6=CC(=O)C(=O)C([N+](=O)[O-])=C6NC4C1C2CC35 (stereo unspecified)")
"> 100 µM"
>>> test_value("CC1CCC(C(C)C)C(O[C@@H]2OC(=O)C[C@@H]2Sc2ccccc2)C1 (stereo partly specified)")
"34.9 µM"
>>> test_value("COc1cc(C2C3=C(COC3=O)Nc3cc4c(cc32)CCC4)cc2c1OCO2 (stereo unspecified)")
"3.47 µM"
